- experimentalProtocol: Stability in human serum assessed as half life at 100 uM
- Type: ADME, cell-free
Non-standard residues stand in square brackets, D forms with d. Residues, ends and D or L forms follow the SMILES beside them. Dip = N[C@H](C(=O)O)C(c1ccccc1)c1ccccc1
measuredMetric: half-life at 100 µM

Query :: Give the measured half-life at 100 µM of NCCCC[C@H](NC(=O)[C@@H](NC(=O)[C@H](Cc1c[nH]c2ccccc12)NC(=O)[C@H](CCCCN)NC(=O)[C@H](CCCCN)NC(=O)[C@H](Cc1c[nH]c2ccccc12)NC(=O)[C@H](Cc1c[nH]c2ccccc12)NC(=O)[C@H](CCCCN)NC(=O)[C@@H](N)CCCCN)C(c1ccccc1)c1ccccc1)C(N)=O [RUXOTEMITIDE] (H-KKWWKKW[Dip]K-NH2) .
Result :: > 240 min
